tested on: Saccharomyces cerevisiae lifespan shortening, growth inhibition; assay: yeast lifespan shortening compounds, dose response (AID 849);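 further: yeast growth read as optical density after two days at 30 degrees C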
Calls of active or inactive are those of the source. How the calls were made is not given here.
ASSAY_READOUT: IC50

I have this molecule here, O=C(O)c1ccc(N(c2ccccc2)c2ccccc2)cc1 , and I need its recorded IC50.
> 100 µM (inactive)

I have this molecule here, O=C(O)c1cc2c(s1)-c1ccccc1OC2 , and I need its recorded IC50.
42.2 µM

I have this molecule here, COc1ccc(C(=O)N/N=C/c2sc3ccccc3c2O)cc1 , and I need its recorded IC50.
> 100 µM (inactive)

I have this molecule here, CCc1cc2c(=O)[nH]c(-c3ccccn3)nc2s1 , and I need its recorded IC50.
19.2 µM

I have this molecule here, COc1ccc(Nc2cnn(-c3nc4ccccc4s3)c(=O)c2Cl)cc1 , and I need its recorded IC50.
> 100 µM (inactive)

I have this molecule here, CCCc1cc(-c2n[nH]c(=S)n2C(C)c2ccccc2)cs1 (stereo not drawn) , and I need its recorded IC50.
> 100 µM (inactive)

I have this molecule here, CCCCCC/C(=N/O)c1ccccn1 , and I need its recorded IC50.
10.3 µM

I have this molecule here, CCOC(=O)c1c(N)sc(C(O)(C(F)(F)F)C(F)(F)F)c1-c1ccc(F)cc1 , and I need its recorded IC50.
> 100 µM (inactive)

I have this molecule here, Cc1cc(=O)[nH]c(-n2nc(C)cc2C)n1 , and I need its recorded IC50.
14.3 µM

I have this molecule here, Clc1ccc(CSC(Cn2ccnc2)c2ccc(Cl)cc2Cl)cc1 (stereo not drawn) , and I need its recorded IC50.
0.528 µM

I have this molecule here, CC1(C)C(C=C(Cl)Cl)C1C(=O)Nc1ccc([N+](=O)[O-])cc1 (stereo not drawn) , and I need its recorded IC50.
51.3 µM

I have this molecule here, CC(C)(C)c1ccc(C(=O)NC(=S)NNC(=O)c2cccs2)cc1 , and I need its recorded IC50.
42.2 µM

I have this molecule here, CCOC(=O)C1C(C)N=C2SCC(=O)N2C1c1cccc(Br)c1 (stereo not drawn) , and I need its recorded IC50.
> 100 µM (inactive)

I have this molecule here, CC12C(=O)N(c3cccc4cccnc34)C(=O)C1C1C=CC2C1 (stereo not drawn) , and I need its recorded IC50.
> 100 µM (inactive)

I have this molecule here, O=C(O)c1cc2c(s1)-c1ccccc1CC2 , and I need its recorded IC50.
30.5 µM

I have this molecule here, Cc1ccc2c(c1)c1c(n2C)-c2[nH]ncc2CC1 , and I need its recorded IC50.
35.3 µM

I have this molecule here, CCCCCCc1ccc(-c2ncc(N)cn2)cc1 , and I need its recorded IC50.
25.9 µM

I have this molecule here, CCCCn1c(/N=C/c2c[nH]c3ccccc23)nc2ccccc21 , and I need its recorded IC50.
> 100 µM (inactive)
